Tested on: MCF7 (breast)
Method: MTT in vitro cytotoxic activity assay, MCF7
Assay type: cell-based
Test conditions: Homo sapiens; MCF7 (breast) cells, exposed for 96 hours; read-out: IC50, 50% inhibition of cell proliferation
Excerpt: Compounds 1-12 were screened for their in vitro cytotoxic activity utilizing a 3-(4,5-dimethyl-thiazol-2-yl)-2,5-diphenyltetrazolium bromide (MTT) assay against selected cancer human cell lines consisting of PC3 (prostate), HCT116 (colon), A375 (melanoma), H1299 (lung), MIAPaCa-2 (pancreas), HL60 (leukemia), MCF7 (breast), MDA-MB-231 (breast) (T. Mosmann, J. Immunol. Meth., 1983, 65, 55-63). […]
Reported property: pIC50
Convention used: pIC50 is expressed as -log10 of the molar concentration.

If you can, please state the reported pIC50 value of O=C(O)c1ccc2c(c1)cc1nc(Nc3cccc(Cl)c3)c3ccncc3n12 [Compound 1] . 5.16
